System: Staphylococcus aureus
Assay: Antibacterial activity against vancomycin resistant Staphylococcus aureus […] 12 assessed as bacterial growth inhibition incubated for 18 to 24 hrs by broth microdilution method
Assay type: functional
Settings: time 18-24 hrs
experimental-endpoint: MIC (µg/mL)
Number in µg/mL, nothing else.

compound	tested-system	readout-units	measurement
C[C@@H](O)[C@H]1C(=O)N2C(C(=O)O)=C(S[C@@H]3CN[C@H](C(=O)N(C)C)C3)[C@H](C)[C@H]12	Staphylococcus aureus	µg/mL	8

I have this compound here, CCN1C(=O)[C@@]2(CN(C)C3(c4cc(Cl)ccc4-n4c3nc3ccccc3c4=O)C2(C#N)C#N)c2ccccc21 (stereo partly specified) , and I need its recorded MIC.
0.25

Could you share which MIC value was measured for CCN1C(=O)[C@@]2(CN(C)C3(c4cc(Br)ccc4-n4c3nc3ccccc3c4=O)C2(C#N)C#N)c2ccccc21 (stereo partly specified) ?
0.25

Param item = C[C@H]1COc2c(N3CCN(C)CC3)c(F)cc3c(=O)c(C(=O)O)cn1c23 [LEVOFLOXACIN ANHYDROUS] ; retrieve measured MIC.
32

What does the data say about its MIC? Entry: CCN1C(=O)[C@@]2(CN(C)C3(c4cc(OC)ccc4-n4c3nc3ccccc3c4=O)C2(C#N)C#N)c2ccccc21 (stereo partly specified)
8
